test_description: Inhibition of HCV genotype 1b replicon NS5A S2204I mutant infected in human Huh7 cells
measured_property: pEC50
Quick note: pEC50 means taking -log10 of the concentration in moles per liter.

Can you look up the measured pEC50 of `COC(=O)N[C@H](NC(=O)N1CCC[C@H]1c1ncc(-c2ccc(-c3ccc(-c4cnc([C@@H]5CCCN5C(=O)[C@@H](NC(=O)OC)C(C)C)[nH]4)cc3)cc2)[nH]1)C(C)C` for me?
11.05

====

test_description: Inhibition of HCV genotype 1a replicon NS5A S2204I mutant infected in human Huh7 cells
measured_property: EC50
Remember to follow the number with its unit.

Can you look up the measured EC50 of `COC(=O)N[C@H](NC(=O)N1CCC[C@H]1c1ncc(-c2ccc(-c3ccc(-c4cnc([C@@H]5CCCN5C(=O)[C@@H](NC(=O)OC)C(C)C)[nH]4)cc3)cc2)[nH]1)C(C)C` for me?
0.05 nM

====

test_description: Inhibition of HCV genotype 3a replicons NS5A infected in human Huh7 cells by luciferase reporter gene assay
Would you mind telling me the reported log10(EC50) of each entry?
Values are log10 of EC50 in nM.

Can you look up the measured log10(EC50) of `COC(=O)N[C@@H](NC(=O)N1CCC[C@H]1c1nc2ccc(-c3ccc4cc(-c5cnc([C@@H]6CCCN6C(=O)[C@@H](NC(=O)OC)C(C)C)[nH]5)ccc4c3)cc2[nH]1)c1ccccc1` for me?
-1.22

Can you look up the measured log10(EC50) of `COC(=O)N[C@H](NC(=O)N1CCC[C@H]1c1nc2ccc(-c3ccc4cc(-c5cnc([C@@H]6CCCN6C(=O)[C@@H](NC(=O)OC)C6CCOCC6)[nH]5)ccc4c3)cc2[nH]1)C(C)C` for me?
-0.05

Can you look up the measured log10(EC50) of `COC(=O)N[C@H](NC(=O)N1CCC[C@H]1c1nc2ccc(-c3ccc4cc(-c5cnc([C@@H]6CCCN6C(=O)[C@@H](NC(=O)OC)C6CCOCC6)[nH]5)ccc4c3)cc2[nH]1)C1CCOCC1` for me?
0.04

Can you look up the measured log10(EC50) of `COC(=O)N[C@H](NC(=O)N1CCC[C@H]1c1nc2ccc(-c3ccc4cc(-c5cnc([C@@H]6CCCN6C(=O)[C@@H](NC(=O)OC)C(C)C)[nH]5)ccc4c3)nc2[nH]1)C(C)C` for me?
0.32

Can you look up the measured log10(EC50) of `COC(=O)N[C@H](NC(=O)N1CCC[C@H]1c1nc2cnc(-c3ccc4cc(-c5cnc([C@@H]6CCCN6C(=O)[C@@H](NC(=O)OC)C(C)C)[nH]5)ccc4c3)cc2[nH]1)C(C)C` for me?
1.18

Can you look up the measured log10(EC50) of `COC(=O)N[C@H](NC(=O)N1CCC[C@H]1c1nc2ncc(-c3ccc4cc(-c5cnc([C@@H]6CCCN6C(=O)[C@@H](NC(=O)OC)C(C)C)[nH]5)ccc4c3)cc2[nH]1)C(C)C` for me?
0.82

Can you look up the measured log10(EC50) of `COC(=O)N[C@H](NC(=O)N1CCC[C@H]1c1nc2ccc(-c3ccc4cc(-c5cnc([C@@H]6CCCN6C(=O)[C@@H](NC(=O)OC)C6CCCC6)[nH]5)ccc4c3)cc2[nH]1)C1CCCC1` for me?
0.38

Can you look up the measured log10(EC50) of `COC(=O)N[C@H](NC(=O)N1CCC[C@H]1c1nc2ccc(-c3ccc4cc(-c5cnc([C@@H]6CCCN6C(=O)[C@@H](NC(=O)OC)C(C)C)[nH]5)ccc4n3)cc2[nH]1)C(C)C` for me?
0.04

Can you look up the measured log10(EC50) of `COC(=O)N[C@H](NC(=O)N1CCC[C@H]1c1nc2ccc(-c3ccc4cc(-c5cnc([C@@H]6CCCN6C(=O)[C@@H](NC(=O)OC)C(C)C)[nH]5)ccc4c3)cc2[nH]1)C1CCOCC1` for me?
-0.07

Can you look up the measured log10(EC50) of `COC(=O)N[C@H](NC(=O)N1CCC[C@H]1c1nc2ccc(-c3ccc4cc(-c5cnc([C@@H]6CCCN6C(=O)[C@@H](NC(=O)OC)[C@@H](C)OC)[nH]5)ccc4c3)cc2[nH]1)[C@@H](C)OC` for me?
0.18

====

test_description: Inhibition of HCV genotype 3a replicons NS5A infected in human Huh7 cells by luciferase reporter gene assay
Would you mind telling me the reported EC50 of each entry?
Could you give me the number in nM? Just the number is fine.

Can you look up the measured EC50 of `COC(=O)N[C@H](NC(=O)N1CCC[C@H]1c1ncc(-c2ccc(-c3ccc(-c4cnc([C@@H]5CCCN5C(=O)[C@@H](NC(=O)OC)C(C)C)[nH]4)cc3)cc2)[nH]1)C(C)C` for me?
0.67

Can you look up the measured EC50 of `CC[C@@H](C)[C@H](NC(=O)OC)NC(=O)N1CCC[C@H]1c1nc2ccc(-c3ccc4cc(-c5cnc([C@@H]6CCCN6C(=O)[C@@H](NC(=O)OC)[C@H](C)CC)[nH]5)ccc4c3)cc2[nH]1` for me?
9.5

Can you look up the measured EC50 of `CC[C@H](C)[C@H](NC(=O)OC)NC(=O)N1CCC[C@H]1c1nc2ccc(-c3ccc4cc(-c5cnc([C@@H]6CCCN6C(=O)[C@@H](NC(=O)OC)[C@@H](C)OC)[nH]5)ccc4c3)cc2[nH]1` for me?
1

Can you look up the measured EC50 of `CC[C@H](C)[C@H](NC(=O)OC)NC(=O)N1CCC[C@H]1c1nc2ccc(-c3ccc4cc(-c5cnc([C@@H]6CCCN6C(=O)[C@@H](NC(=O)OC)[C@@H](C)CC)[nH]5)ccc4c3)cc2[nH]1` for me?
2.3

Can you look up the measured EC50 of `COC(=O)N[C@H](NC(=O)N1CCC[C@H]1c1nc2ccc(-c3ccc4cc(-c5cnc([C@@H]6CCCN6C(=O)[C@H](NC(=O)OC)c6ccccc6)[nH]5)ccc4c3)cc2[nH]1)C(C)C` for me?
0.03

Can you look up the measured EC50 of `COC(=O)N[C@H](NC(=O)N1CCC[C@H]1c1nc2ccc(-c3ccc4cc(-c5cnc([C@@H]6CCCN6C(=O)[C@@H](NC(=O)OC)[C@@H](C)OC)[nH]5)ccc4c3)cc2[nH]1)C(C)C` for me?
1.6

====

Would you mind telling me the reported pEC50 of each entry?
test_description: Inhibition of HCV genotype 1a replicons NS5A infected in human Huh7 cells by luciferase reporter gene assay
Quick note: pEC50 means taking -log10 of the concentration in moles per liter.

Can you look up the measured pEC50 of `COC(=O)N[C@H](NC(=O)N1CCC[C@H]1c1ncc(-c2ccc(-c3ccc(-c4cnc([C@@H]5CCCN5C(=O)[C@@H](NC(=O)OC)C(C)C)[nH]4)cc3)cc2)[nH]1)C(C)C` for me?
9.85

Can you look up the measured pEC50 of `COC(=O)N[C@H](NC(=O)N1CCC[C@H]1c1nc2ccc(-c3ccc4cc(-c5cnc([C@@H]6CCCN6C(=O)[C@@H](NC(=O)OC)C(C)C)[nH]5)ccc4c3)nc2[nH]1)C(C)C` for me?
10.10

Can you look up the measured pEC50 of `COC(=O)N[C@H](NC(=O)N1CCC[C@H]1c1nc2ccc(-c3ccc4cc(-c5cnc([C@@H]6CCCN6C(=O)[C@@H](NC(=O)OC)[C@@H](C)OC)[nH]5)ccc4c3)cc2[nH]1)[C@@H](C)OC` for me?
9.89

Can you look up the measured pEC50 of `COC(=O)N[C@H](NC(=O)N1CCC[C@H]1c1nc2cnc(-c3ccc4cc(-c5cnc([C@@H]6CCCN6C(=O)[C@@H](NC(=O)OC)C(C)C)[nH]5)ccc4c3)cc2[nH]1)C(C)C` for me?
8.92

Can you look up the measured pEC50 of `COC(=O)N[C@H](NC(=O)N1CCC[C@H]1c1nc2ncc(-c3ccc4cc(-c5cnc([C@@H]6CCCN6C(=O)[C@@H](NC(=O)OC)C(C)C)[nH]5)ccc4c3)cc2[nH]1)C(C)C` for me?
9.64

====

Would you mind telling me the reported pEC50 of each entry?
test_description: Inhibition of HCV genotype 1b replicons NS5A infected in human Huh7 cells by luciferase reporter gene assay
Quick note: pEC50 means taking -log10 of the concentration in moles per liter.

Can you look up the measured pEC50 of `COC(=O)N[C@H](NC(=O)N1CCC[C@H]1c1nc2ccc(-c3ccc4cc(-c5cnc([C@@H]6CCCN6C(=O)[C@@H](NC(=O)OC)[C@@H](C)OC)[nH]5)ccc4c3)cc2[nH]1)C(C)C` for me?
10.66

Can you look up the measured pEC50 of `COC(=O)N[C@H](NC(=O)N1CCC[C@H]1c1nc2cnc(-c3ccc4cc(-c5cnc([C@@H]6CCCN6C(=O)[C@@H](NC(=O)OC)C(C)C)[nH]5)ccc4c3)cc2[nH]1)C(C)C` for me?
10.28

Can you look up the measured pEC50 of `COC(=O)N[C@H](NC(=O)N1CCC[C@H]1c1nc2ccc(-c3ccc4cc(-c5cnc([C@@H]6CCCN6C(=O)[C@@H](NC(=O)OC)[C@@H](C)OC)[nH]5)ccc4c3)cc2[nH]1)[C@@H](C)OC` for me?
10.33

Can you look up the measured pEC50 of `COC(=O)N[C@H](NC(=O)N1CCC[C@H]1c1nc2ccc(-c3ccc4cc(-c5cnc([C@@H]6CCCN6C(=O)[C@@H](NC(=O)OC)C(C)C)[nH]5)ccc4n3)cc2[nH]1)C(C)C` for me?
10.38

Can you look up the measured pEC50 of `COC(=O)N[C@H](NC(=O)N1CCC[C@H]1c1nc2ccc(-c3ccc4cc(-c5cnc([C@@H]6CCCN6C(=O)[C@@H](NC(=O)OC)C6CCOCC6)[nH]5)ccc4c3)cc2[nH]1)C1CCOCC1` for me?
9.95

Can you look up the measured pEC50 of `CC[C@H](C)[C@H](NC(=O)OC)NC(=O)N1CCC[C@H]1c1nc2ccc(-c3ccc4cc(-c5cnc([C@@H]6CCCN6C(=O)[C@@H](NC(=O)OC)[C@@H](C)CC)[nH]5)ccc4c3)cc2[nH]1` for me?
10.82
